Molecular target: XIAP (Homo sapiens)
Construct: GST
Test: Disruption of the Smac peptide-(XIAP)BIR3 protein-protein interaction (Tables 2 and 3)
Format: binding

# compound, assayed-target, IC50
records = [
    ("CN[C@@H](C)C(=O)N[C@H](C(=O)N1CCN(C(=O)Oc2ccc(F)cc2)C[C@H]1C(=O)NC1CCCc2ccccc21)C(C)C (stereo partly shown)", "XIAP (Homo sapiens)", "< 10 µM"),
]

====

List of IC50 values.
Target: XIAP (Homo sapiens)
Construct: GST
Test: Disruption of the Smac peptide-(XIAP)BIR3 protein-protein interaction (Tables 2 and 3)
Assay type: binding
Details: Series A compounds, Table 2; read-out: XIAP IC50

# compound, IC50
records = [
    ("CN[C@@H](C)C(=O)N[C@H](C(=O)N1CCN(C(=O)c2ccc(NC(C)=O)cc2)C[C@H]1C(=O)NC1CCCc2ccccc21)C(C)C (stereo partly drawn)", "< 10 µM"),
    ("CN[C@@H](C)C(=O)N[C@H](C(=O)N1CCN(CCC(C)C)C[C@H]1C(=O)NC1CCCc2ccccc21)C(C)C (stereo partly drawn)", "< 10 µM"),
    ("CN[C@@H](C)C(=O)N[C@H](C(=O)N1CCN(Cc2ccc(OC(F)(F)F)cc2)C[C@H]1C(=O)NC1CCCc2ccccc21)C(C)C (stereo partly drawn)", "< 10 µM"),
]

====

Target: XIAP (Homo sapiens, UniProt P98170)
Construct: GST
Sequence (P98170 248-358 limits assumed, species assumed): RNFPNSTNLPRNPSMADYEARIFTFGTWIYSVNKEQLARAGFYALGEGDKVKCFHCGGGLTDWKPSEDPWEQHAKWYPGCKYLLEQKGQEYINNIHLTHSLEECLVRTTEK
Assay: Disruption of the Smac peptide-(XIAP)BIR3 protein-protein interaction (Tables 2 and 3)
Assay type: binding
Conditions: Series A compounds, Table 2; read-out: XIAP IC50
Experimental: IC50 values for Series A compounds for XIAP. An assay capable of measuring disruption of the Smac peptide-(XIAP)BIR3 protein-protein interaction is established in the art as described in Example 2. In this assay IAP Inhibitor compounds compete with an immobilized Smac peptide for occupancy of the BIR3 binding pocket of XIAP. […] Assays are performed and IC50 values are calculated as follows: […]
pIC50: −log10 of the molar value.

# compound, pIC50
measured = [
    ("CN[C@@H](C)C(=O)N[C@H](C(=O)N1CCN(C(=O)NC(C)C)C[C@H]1C(=O)NC1CCCc2ccccc21)C(C)C (stereo partly drawn) [Compound 48]", "> 5.00"),
    ("CNC(C)C(=O)NC(C(=O)N1CCN(S(=O)(=O)c2ccccc2)CC1C(=O)NC1CCCc2ccccc21)C(C)C (stereo not drawn) [Compound 2]", "> 5.00"),
    ("CN[C@@H](C)C(=O)N[C@H](C(=O)N1CCN(C(=O)Nc2ccccc2)C[C@H]1C(=O)NC1CCCc2ccccc21)C(C)C (stereo partly drawn) [Compound 41]", "> 5.00"),
    ("CN[C@@H](C)C(=O)N[C@H](C(=O)N1CCN(Cc2ccc(C#N)cc2)C[C@H]1C(=O)NC1CCCc2ccccc21)C(C)C (stereo partly drawn) [Compound 43]", "> 5.00"),
    ("CN[C@@H](C)C(=O)N[C@H](C(=O)N1CCN(c2ccc(F)cc2)C[C@H]1C(=O)NC1CCCc2ccccc21)C(C)C (stereo partly drawn) [Compound 44]", "> 5.00"),
    ("CN[C@@H](C)C(=O)N[C@H](C(=O)N1CCN(S(C)(=O)=O)C[C@H]1C(=O)NC1CCCc2ccccc21)C(C)C (stereo partly drawn) [Compound 30]", "> 5.00"),
]

====

Target: XIAP (Homo sapiens, UniProt P98170)
Construct: GST
Assay: Disruption of the Smac peptide-(XIAP)BIR3 protein-protein interaction (Tables 2 and 3)
Format: binding
Settings: Series A compounds, Table 2; read-out: XIAP IC50
Each entry below lists one item and its recorded IC50 value.

# compound, IC50
data = [
    ("CN[C@@H](C)C(=O)N[C@H](C(=O)N1CCN(Cc2cncs2)C[C@H]1C(=O)NC1CCCc2ccccc21)C(C)C (stereo partly shown)", "< 10 µM"),
    ("CN[C@@H](C)C(=O)N[C@H](C(=O)N1CCN(CC2CC2)C[C@H]1C(=O)NC1CCCc2ccccc21)C(C)C (stereo partly shown)", "< 10 µM"),
    ("CN[C@@H](C)C(=O)N[C@H](C(=O)N1CCN(Cc2ccccc2)C[C@H]1C(=O)NC1CCCc2ccccc21)C(C)C (stereo partly shown) [Compound 52]", "< 10 µM"),
    ("CN[C@@H](C)C(=O)N[C@H](C(=O)N1CCN(Cc2ccccc2)C[C@H]1C(=O)NC1CCCc2ccccc21)C(C)C (stereo partly shown) [Compound 14]", "< 10 µM"),
    ("CN[C@@H](C)C(=O)N[C@H](C(=O)N1CCN(S(=O)(=O)C2CCCCC2)C[C@H]1C(=O)NC1CCCc2ccccc21)C(C)C (stereo partly shown)", "< 10 µM"),
    ("CN[C@@H](C)C(=O)N[C@H](C(=O)N1CCN(C(=O)NC2CCCC2)C[C@H]1C(=O)NC1CCCc2ccccc21)C(C)C (stereo partly shown)", "< 10 µM"),
    ("CN[C@@H](C)C(=O)N[C@H](C(=O)N1CCN(CC2CCCC2)C[C@H]1C(=O)NC1CCCc2ccccc21)C(C)C (stereo partly shown)", "< 10 µM"),
    ("CN[C@@H](C)C(=O)N[C@H](C(=O)N1CCN(C(=O)NC(C)(C)C)C[C@H]1C(=O)NC1CCCc2ccccc21)C(C)C (stereo partly shown)", "< 10 µM"),
    ("CCCN1CCN(C(=O)[C@@H](NC(=O)[C@H](C)NC)C(C)C)[C@H](C(=O)NC2CCCc3ccccc32)C1 (stereo partly shown)", "< 10 µM"),
    ("CN[C@@H](C)C(=O)N[C@H](C(=O)N1CCN(Cc2ccccc2)C[C@H]1C(=O)NC1CCCc2ccccc21)C(C)C (stereo partly shown) [Compound 54]", "< 10 µM"),
    ("CN[C@@H](C)C(=O)N[C@H](C(=O)N1CCN(C(=O)OCc2ccccc2)C[C@H]1C(=O)NC1CCCc2ccccc21)C(C)C (stereo partly shown)", "< 10 µM"),
    ("CN[C@@H](C)C(=O)N[C@H](C(=O)N1CCN(Cc2ccccc2Cl)C[C@H]1C(=O)NC1CCCc2ccccc21)C(C)C (stereo partly shown)", "< 10 µM"),
    ("CN[C@@H](C)C(=O)N[C@H](C(=O)N1CCN(S(=O)(=O)CCC(F)(F)F)C[C@H]1C(=O)NC1CCCc2ccccc21)C(C)C (stereo partly shown)", "< 10 µM"),
]
